pIC50 listing for selected compounds.
tgt: IKKε (Homo sapiens, UniProt Q14164)
Construct: His-tag; made in house; host or cells: Sf9 insect cells
Sequence (Q14164 whole entry): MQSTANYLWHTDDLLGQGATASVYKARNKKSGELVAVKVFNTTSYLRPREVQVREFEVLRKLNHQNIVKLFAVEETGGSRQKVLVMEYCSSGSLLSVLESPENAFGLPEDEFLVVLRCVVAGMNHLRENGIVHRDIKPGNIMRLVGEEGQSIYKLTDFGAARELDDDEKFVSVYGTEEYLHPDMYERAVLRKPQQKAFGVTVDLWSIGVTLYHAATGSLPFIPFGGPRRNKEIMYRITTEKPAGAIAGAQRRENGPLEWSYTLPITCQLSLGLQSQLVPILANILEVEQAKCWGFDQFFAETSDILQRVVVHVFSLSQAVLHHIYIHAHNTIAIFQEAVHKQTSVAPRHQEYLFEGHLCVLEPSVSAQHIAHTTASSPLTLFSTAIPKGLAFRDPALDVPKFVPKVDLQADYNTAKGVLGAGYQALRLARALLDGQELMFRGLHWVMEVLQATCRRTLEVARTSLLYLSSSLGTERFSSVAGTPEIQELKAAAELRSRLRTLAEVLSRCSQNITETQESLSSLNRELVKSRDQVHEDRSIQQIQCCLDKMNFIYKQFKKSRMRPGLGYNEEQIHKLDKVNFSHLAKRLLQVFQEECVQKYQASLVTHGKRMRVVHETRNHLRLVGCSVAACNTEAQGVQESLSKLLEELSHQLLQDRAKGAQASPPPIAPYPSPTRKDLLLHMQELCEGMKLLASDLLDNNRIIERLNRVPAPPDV
assay_summary: In-vitro IKKε kinase assay ([γ33]ATP filter-plate)
Assay type: biochemical
details: text bins; read-out: IC50 for inhibition of the kinase activity of IKKε
pIC50: −log10 of the molar value.

Example entries and their recorded answers appear below.
Q: Identify the measured pIC50 of `COc1cc(N)cc(Nc2nccc(-c3ccc(OC)c(C#N)c3)n2)c1` for IKKε (Homo sapiens, UniProt Q14164).
Ans: 7.30 to 8.30

Q: Try `CCN(CC)CCOc1cc(Nc2nccc(-c3ccc(OCC4CC4)c(C#N)c3)n2)ccc1F` next.
Ans: > 8.30

Q: Try `COc1ccc(-c2ccnc(Nc3cccc(CN(C)CC(=O)N(C)C)c3)n2)cc1C#N` next.
Ans: 7.30 to 8.30

Q: Try `COc1cccc(Nc2nccc(-c3cccc(C#N)c3)n2)c1` next.
Ans: 6.30 to 7.30

More entries:
Q: Identify the measured pIC50 of `CC(C)Oc1ccc(-c2ccnc(Nc3ccc(N4CCN(C)CC4)cc3)n2)cc1C#N` for IKKε (Homo sapiens, UniProt Q14164).
Ans: > 8.30

Q: Try `N#Cc1cc(-c2ccnc(Nc3ccc(/C=C/CN4CCOCC4)cc3)n2)ccc1OC1CCOCC1` next.
Ans: > 8.30

Q: Try `COc1cc(Nc2nccc(-c3ccc(OC4CCOCC4)c(C#N)c3)n2)ccc1S(=O)(=O)N1CCCC1` next.
Ans: > 8.30

Q: Try `CN(C)c1ccc(Nc2nccc(-c3cccc(C#N)c3)n2)cc1` next.
Ans: 6.30 to 7.30

----------
tgt: IKKε (Homo sapiens)
Construct: His-tag; made in house; host or cells: Sf9 insect cells
assay_summary: In-vitro IKKε kinase assay ([γ33]ATP filter-plate)
Assay type: biochemical
details: text bins; read-out: IC50 for inhibition of the kinase activity of IKKε
IC50 listing for selected compounds.

Example entries and their recorded answers appear below.
Q: Data request, read-out IC50, for `CC(C)(O)COc1ccc(-c2ccnc(Nc3ccc(N4CCOCC4)cc3)n2)cc1C#N`
Ans: < 5 nM

Q: Try `CCN(CC)CCN(CC)C(=O)Cc1cccc(Nc2nccc(-c3ccc(NC(=O)C(C)C)c(C#N)c3)n2)c1` next.
Ans: 50 to 500 nM

Q: Try `N#Cc1cc(-c2ccnc(Nc3cccc(CNCCN4CCOCC4)c3)n2)ccc1OC1CCOCC1` next.
Ans: 5 to 50 nM

Q: Try `COc1cc(Nc2nccc(-c3ccc(NC(=O)C4CC4)c(C#N)c3)n2)ccc1C(=O)N1CC(OC)C1` next.
Ans: < 5 nM

Q: Try `CCN1CCN(c2ccc(-c3ccnc(Nc4ccc(N5CCNC(=O)C5)c(OC)c4)n3)cc2C#N)CC1` next.
Ans: 50 to 500 nM

More entries:
Q: Data request, read-out IC50, for `CN1CCN(CCNc2cccc(Nc3nccc(-c4ccc(OC5CCOCC5)c(C#N)c4)n3)c2)CC1`
Ans: < 5 nM

Q: Try `CCC(C)(C)C(=O)Nc1ccc(-c2ccnc(Nc3ccc(N4CCOCC4)cc3)n2)cc1C#N` next.
Ans: 50 to 500 nM

Q: Try `N#Cc1cc(-c2ccnc(Nc3ccc(CO)cc3)n2)ccc1OC1CCOCC1` next.
Ans: 5 to 50 nM

Every entry's value here was drawn from patent US20150352108A1.
